Below, each entry is listed alongside its reported α helix (%).
assay_name: Circular dichroism (CD) test
Type: physicochemical
test_context: wavelength range 190-250 nm; 0.2 mg/ml protein
Field format: number, assumed %, no unit text.

Solved entries (count: 3):
molecule | α helix (%)
S71A (protein) chain 1: MKKFLLLAVLAVSASAFAATDAASLVGELQALDAEYQNLANQEEARFNEERAQADAARQALAQNEQVYNELSQRAQRLQAEANTRFYKSQYQELASKYEDALKKLEAEMEQQKAVISDFEKIQALRAGN chain 2: ATDAASLVGELQALDAEYQNLANQEEARFNEERAQADAARQALAQNEQVYNELSQRAQRLQAEANTRFYKAQYQELASKYEDALKKLEAEMEQQKAVISDFEKIQALRAGN | 49.1
L14A (protein) ATDAASLVGELQAADAEYQNLANQEEARFNEERAQADAARQALAQNEQVYNELSQRAQRLQAEANTRFYKSQYQELASKYEDALKKLEAEMEQQKAVISDFEKIQALRAGN | 44.2
mFadA: cleaved mature form of FadA, 111 aa residues without the signal peptide (protein) ATDAASLVGELQALDAEYQNLANQEEARFNEERAQADAARQALAQNEQVYNELSQRAQRLQAEANTRFYKSQYQELASKYEDALKKLEAEMEQQKAVISDFEKIQALRAGN | 27.9

// moving on: another record for α helix (%)
α helix (%) reading for FadAc: recombinant active heterogeneous complex of pre-FadA and mFadA (protein) chain 1: MKKFLLLAVLAVSASAFAATDAASLVGELQALDAEYQNLANQEEARFNEERAQADAARQALAQNEQVYNELSQRAQRLQAEANTRFYKSQYQELASKYEDALKKLEAEMEQQKAVISDFEKIQALRAGN chain 2: ATDAASLVGELQALDAEYQNLANQEEARFNEERAQADAARQALAQNEQVYNELSQRAQRLQAEANTRFYKSQYQELASKYEDALKKLEAEMEQQKAVISDFEKIQALRAGN : 47.2
